HCT-15 GI50 data
Expressed in µM, but write only the number.

# count of solved cases: 3
`O=C1OCc2c1cc1cc3c(cc1c2-c1ccc2c(c1)OCO2)OCO3.O=C1OCc2cc3cc4c(cc3c(-c3ccc5c(c3)OCO5)c21)OCO4` yielded GI50 of 6.18

`CCOC(=O)Nc1ccc(S(=O)(=O)OC)cc1.CCOC(=O)Nc1ccc(S(=O)(=O)OC)cc1.Cc1cn(C2CC(O)C(CO)O2)c(=O)[nH]c1=O` yielded GI50 of 18.6

`CC(=O)Oc1cc2c(cc1OC(C)=O)C1(C)CCC2(C)c2cc(OC(C)=O)c(OC(C)=O)cc21` yielded GI50 of 6.92

---
CC(=O)CC12NC(=O)N(C)N=C1N(C)C(=O)N(C)C2=O (stereo not given) yielded GI50 of 57.7

----------
# Test system: SR
# ASSAY REMARKS: NCI tumour cell line growth inhibition, 48 h
The source made the active and inactive calls. No stated cut-off is given here; in the data, active = GI50 up to about 1.1 µM and inactive = higher.
Pick one: active, inactive

# input How was O=C(CC1(O)C(=O)Nc2c(Cl)cc(Cl)cc21)c1ccc(Br)cc1Br (stereo not given) classified in this test?
# output inactive

# input How was `CN(CCCN=C=S)CCCN1c2ccccc2CCc2ccccc21` classified in this test?
# output active

# input How was `CC1(C)CC(=O)c2[nH]c3ccccc3c2CC(=O)NCCc2cn1cn2` classified in this test?
# output inactive

# input How was `CO/C(=N\N=C\c1ccc(Cl)cc1)c1ccncc1` classified in this test?
# output inactive

Here is another molecule to look at.
# input How was `O=C1OCc2c1cc1cc3c(cc1c2-c1ccc2c(c1)OCO2)OCO3.O=C1OCc2cc3cc4c(cc3c(-c3ccc5c(c3)OCO5)c21)OCO4` classified in this test?
# output inactive

----------
# Test system: SF-539
# ASSAY REMARKS: NCI tumour cell line growth inhibition, 48 h
The source made the active and inactive calls. Cut-off read from the data, not from the text of the source: active = GI50 up to about 1.1 µM and inactive = higher.
Pick one: active, inactive

Solved cases (4 shown):
# input How was O=C1NC2NC3NC(=O)NC3NC2N1 (stereo not given) classified in this test?
# output inactive

# input How was `C/C(=C\CNc1nc(Cl)nc2[nH]cnc12)CO` classified in this test?
# output inactive

# input How was `O=C(O)CN(c1ccccc1)S(=O)(=O)c1ccccc1[N+](=O)[O-]` classified in this test?
# output inactive

# input How was `COC(=O)CCC(=O)CC(=O)C1=NS(=O)(=O)c2nc(S(N)(=O)=O)c(Cl)cc2N1` classified in this test?
# output inactive

---
# input How was `COc1c(Br)cc2ccccc2c1-c1c(OC)c(Br)cc2ccccc12` classified in this test?
# output inactive

# input How was `COc1cc2cc(C(=O)N3C[C@@H](CCl)c4c3cc(N)c3ccccc43)[nH]c2c(OC)c1OC` classified in this test?
# output active

# input How was `O=C(O[C@H]1CCN2C[C@H]3C[C@H](CN4C(=O)CCC[C@H]34)[C@@H]2C1)c1ccc(O)cc1` classified in this test?
# output inactive

----------
# Tested on: Malme-3M
# ASSAY REMARKS: NCI tumour cell line growth inhibition, 48 h
Activity calls are given as the source filed them. No stated cut-off is given here; in the data, active = GI50 up to about 1.1 µM and inactive = higher.
Pick one: Yes = active, No = inactive

# input How was `Cc1ccc(/C=C/C(=O)c2cc(CN(C)C)c(O)c(CN(C)C)c2)cc1` classified in this test?
# output No

# input How was `C/C(=N/NC(=S)Nc1ccccc1Cl)c1ccccn1` classified in this test?
# output Yes

---
# input How was `COc1cc(OC)c(OC)cc1/C=C/c1cc[n+](C)c2ccccc12` classified in this test?
# output No

# input How was COc1ccc(C2C(Cl)C(=O)N2NC(=O)c2ccc(NC(C)=O)cc2)cc1OC (stereo unspecified) classified in this test?
# output No
